Answer each item with its documented binding signal.
- target.of.assay: T1, UNK ZnF1-3 (human, UniProt Q9C0B0 31-174)
- T1 sequence: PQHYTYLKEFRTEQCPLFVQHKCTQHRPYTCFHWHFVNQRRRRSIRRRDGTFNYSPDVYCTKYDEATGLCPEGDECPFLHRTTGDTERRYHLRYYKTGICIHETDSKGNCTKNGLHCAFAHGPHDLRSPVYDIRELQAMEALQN
- experimental.protocol: nsRBNS (natural sequence RNA bind-n-seq); RBNS binding buffer (assumed for nsRBNS): 25 mM Tris pH 7.5, 150 mM KCl, 3 mM MgCl2, 0.01% Triton X-100, 500 ug/ml BSA, 20 U/ml SUPERase-In, 4 C; UNK is unkempt and MSI1 is Musashi-1; names of the RNAs are library labels; protein concentration not given here; high values mean tight binding
The full ranking holds about 24,000 sequences; the median of “enrichment r” is about 0.99, and the highest 2% start at about 3.7. Many of the other results were omitted from the sample, so the highest values are more common in it than they were.

binder	binding signal
59350742_59359075_1706_CDS_ENSG00000157450_ENST00000557998|human|control|control (ssRNA) RNA: GGGAGUUCUACAGUCCGACGAUCGUUCUGUGACGACCCUCCACAUGGUGAGUGCUGGGGACAGCAGGAAGGUAACCUUGGCAUUGCAGGAGGGCCAGUUUCCGUUACAGCACUAGAUGUAGUUCUCCUUGAGUCAUCUCCUAUCAACAGAGGAUUGAGCAUCA	0.898 enrichment R
chr17:64801638:64801639:+_ENSG00000154229_ENST00000413366|hu_mus|hu_hu_hu_mus_False|1_98 (ssRNA) RNA: GGGAGUUCUACAGUCCGACGAUCUAUAUAUAUAUAUAUAUACACACACAUAUAUAGUAAAACCCUAGUUAAACGUGUAAAGUAGCCAUUCAUUUUUAAAAUUACAUCUACAUUAAAAAAUUAAUAUAUCUGAUAGAGUGCCCACAACAGAGGAUUGAGCAUCA	4.56 enrichment R

Query: // lookup binding signal for chr1:95362928:95362929:-_ENSG00000117519_ENST00000538964|hu_hu|motif|central (ssRNA) RNA: GGGAGUUCUACAGUCCGACGAUCAGACCACAUUUAGCAAUAAGCAUGAGUUUAGUCUUCCAUGUAGAAACCAGAUACACGGAACUGUAAAAAAAAAAAAAAAAAAAAAAAGUUUCCUAUUGUUUGAAAAUACCAGUUUAAUAUCAACAGAGGAUUGAGCAUCA
Reply: 5.33 enrichment R
